molecular target: Hfq V22A (Escherichia coli, UniProt P0A6X3 1-102, V22A); assay: ITC; no Mg2+ listed; N 1.43 RNA/hexamer; ITC: 20 mM Tris-HCl pH 7.5, 100 mM NaCl, 20 mM KCl, 30°C; plus 5 mM MgCl2 for U6; Hfq hexamer 10-18 µM in cell; conditions: protein: recombinant; chain copies: 6; single strand
MEASUREMENT_KIND: pKd
A value of pKd is the negative decimal logarithm of a concentration given in moles per litre.

Query :: Name the recorded pKd for AAAAAAAAAAAAAAAAA (ssRNA) [A17] .
Result :: 7.98
